Sourced from patent US10925876B2

# system.tested: sGC α1/β1 heterodimer (Homo sapiens, UniProt Q02108+Q02153)
# Construct: expressed in transfected cells
# Sequence (Q02108 1-690): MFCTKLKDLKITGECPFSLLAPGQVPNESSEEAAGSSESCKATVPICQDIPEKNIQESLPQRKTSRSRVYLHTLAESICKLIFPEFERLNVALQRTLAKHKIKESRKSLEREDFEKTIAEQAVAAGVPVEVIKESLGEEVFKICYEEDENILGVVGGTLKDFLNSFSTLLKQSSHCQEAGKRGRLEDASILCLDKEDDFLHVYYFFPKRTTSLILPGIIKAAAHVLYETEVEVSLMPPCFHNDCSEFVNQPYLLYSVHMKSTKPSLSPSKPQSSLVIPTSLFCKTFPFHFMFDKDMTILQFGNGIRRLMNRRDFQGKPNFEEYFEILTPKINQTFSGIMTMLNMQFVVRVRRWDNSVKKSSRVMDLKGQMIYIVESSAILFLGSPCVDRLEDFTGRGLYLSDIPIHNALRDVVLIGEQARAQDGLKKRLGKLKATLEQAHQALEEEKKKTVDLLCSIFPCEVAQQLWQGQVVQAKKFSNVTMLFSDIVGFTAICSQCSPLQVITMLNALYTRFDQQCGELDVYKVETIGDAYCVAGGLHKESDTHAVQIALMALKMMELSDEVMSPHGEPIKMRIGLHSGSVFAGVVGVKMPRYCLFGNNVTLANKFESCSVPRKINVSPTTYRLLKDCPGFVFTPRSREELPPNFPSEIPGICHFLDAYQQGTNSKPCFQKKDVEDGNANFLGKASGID
# Sequence (Q02153 1-619): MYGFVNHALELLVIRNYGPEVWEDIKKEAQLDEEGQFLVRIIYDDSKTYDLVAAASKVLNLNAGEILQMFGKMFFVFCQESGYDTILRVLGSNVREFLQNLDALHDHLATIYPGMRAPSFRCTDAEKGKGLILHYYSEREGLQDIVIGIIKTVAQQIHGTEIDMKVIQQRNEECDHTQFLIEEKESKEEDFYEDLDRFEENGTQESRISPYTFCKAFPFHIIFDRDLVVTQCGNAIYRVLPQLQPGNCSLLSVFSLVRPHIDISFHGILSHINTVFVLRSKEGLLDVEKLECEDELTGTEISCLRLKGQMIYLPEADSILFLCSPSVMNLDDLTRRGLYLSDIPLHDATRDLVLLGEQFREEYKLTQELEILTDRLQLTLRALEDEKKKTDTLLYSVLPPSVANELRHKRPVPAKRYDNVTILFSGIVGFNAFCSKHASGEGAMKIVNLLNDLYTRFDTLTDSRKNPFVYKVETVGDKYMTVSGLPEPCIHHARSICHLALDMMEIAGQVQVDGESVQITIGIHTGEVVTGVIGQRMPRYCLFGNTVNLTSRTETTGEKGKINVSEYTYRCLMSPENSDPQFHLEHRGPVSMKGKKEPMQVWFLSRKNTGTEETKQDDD
# assay.name: Cell-Based sGC Functional Assay (CASA Assay), cGMP generation in CHO-K1/sGC cells;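 note: reference Compound A is a published heme-dependent sGC activator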
# settings: maximum cGMP production of Compound A set to 100% activation, read-out: % Act. (percent activation relative to Compound A)

# compound, system.tested, Emax, %
measured = [
    ("CC1(c2ccc(Cl)c(F)c2)C(=O)Nc2nc(-c3cn4ncnc4c(CCC(F)(F)C(F)(F)F)n3)nc(N)c21 (centres unmarked)", "sGC α1/β1 heterodimer (Homo sapiens, UniProt Q02108+Q02153)", 147),
    ("Nc1nc(-c2cn3ncnc3c(CCCC(F)(F)F)n2)nc2c1C(c1ccc(Cl)cc1)(C1CC1)C(=O)N2 (centres unmarked) [Example 31B]", "sGC α1/β1 heterodimer (Homo sapiens, UniProt Q02108+Q02153)", 104),
    ("Nc1nc(-c2cn3ncnc3c(CCC(F)(F)C(F)(F)F)n2)nc2c1C(c1ccccn1)(C1CC1)C(=O)N2 (centres unmarked) [Example 114A]", "sGC α1/β1 heterodimer (Homo sapiens, UniProt Q02108+Q02153)", 122),
    ("C[C@@]1(c2ccc(F)cc2)C(=O)Nc2nc(-c3cn4ncnc4c(CCC(F)(F)F)n3)nc(N)c21 [Example 74A]", "sGC α1/β1 heterodimer (Homo sapiens, UniProt Q02108+Q02153)", 110),
    ("CC1(c2ncc(C(F)(F)F)cn2)C(=O)Nc2nc(-c3cn4ncnc4c(CCCC(F)(F)F)n3)nc(N)c21 (racemic) [Example 51B]", "sGC α1/β1 heterodimer (Homo sapiens, UniProt Q02108+Q02153)", 144),
]

* * *

# system.tested: sGC α1/β1 heterodimer (Homo sapiens, UniProt Q02108+Q02153)
# Construct: expressed in transfected cells
# assay.name: Cell-Based sGC Functional Assay (CASA Assay), cGMP generation in CHO-K1/sGC cells;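 note: reference Compound A is a published heme-dependent sGC activator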
# settings: maximum cGMP production of Compound A set to 100% activation, read-out: % Act. (percent activation relative to Compound A)
Emax for assorted compounds

# compound, Emax
rows = [
    ("CC1(c2nnc(C3CC3)o2)C(=O)Nc2nc(-c3cn4ncnc4c(CCCC(F)(F)F)n3)nc(N)c21 (stereo not shown) [Example 99A]", "113%"),
    ("CCCCc1nc(-c2nc(N)c3c(n2)NC(=O)C3(c2ccccn2)C2CC2)cn2ncnc12 (stereo not shown) [Example 116A]", "85%"),
    ("CCCc1nc(-c2nc(N)c3c(n2)NC(=O)C3(c2ccc(Cl)cn2)C2CC2)cn2ncnc12 (stereo not shown) [Example 57A]", "119%"),
    ("CC1(c2ccc(Cl)cc2)C(=O)Nc2nc(-c3cn4ncnc4c(CCC(F)(F)F)n3)nc(O)c21 (stereo not shown) [Example 152A]", "70%"),
]

* * *

Emax for assorted molecules
# system.tested: sGC α1/β1 heterodimer (Homo sapiens, UniProt Q02108+Q02153)
# Construct: expressed in transfected cells
# assay.name: Cell-Based sGC Functional Assay (CASA Assay), cGMP generation in CHO-K1/sGC cells;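 note: reference Compound A is a published heme-dependent sGC activator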
# settings: maximum cGMP production of Compound A set to 100% activation, read-out: % Act. (percent activation relative to Compound A)
measured.metric: Emax (%)

# molecule, measured.metric, result
data = [
    ("CC1(c2ccccn2)C(=O)Nc2nc(-c3cn4ncnc4c(CCC(F)(F)C(F)(F)F)n3)nc(N)c21 (stereo not drawn) [Example 11B]", "Emax", 208),
    ("O=C1Nc2nc(-c3cn4ncnc4c(CCCC(F)(F)F)n3)nc(O)c2C1(c1ccc(F)cc1)C1CC1 (stereo not drawn) [Example 139B]", "Emax", 169),
    ("CC(C)Cc1nc(-c2ncc3c(n2)NC(=O)[C@@]3(C)c2ccc(F)cc2)cn2ncnc12 [Example 173A]", "Emax", 176),
    ("CC(C)Cc1nc(-c2nc(O)c3c(n2)NC(=O)[C@@]3(C)c2ccc(F)cc2)cn2ncnc12 [Example 163A]", "Emax", 109),
    ("CC1(c2ccc(F)cn2)C(=O)Nc2nc(-c3cn4ncnc4c(CCC(F)(F)C(F)(F)F)n3)nc(N)c21 (stereo not drawn)", "Emax", 157),
    ("CC1(c2ccc(C(F)(F)F)cc2)C(=O)Nc2nc(-c3cn4ncnc4c(CCCC(F)(F)F)n3)nc(N)c21 (stereo not drawn) [Example 24B]", "Emax", 133),
    ("O=C1Nc2nc(-c3cn4ncnc4c(CCCC(F)(F)F)n3)nc(O)c2C1(c1ccc(C(F)(F)F)cc1)C1CC1 (stereo not drawn) [Example 144A]", "Emax", 87),
    ("COc1cccc(Cc2nc(-c3nc(N)c4c(n3)NC(=O)[C@@]4(C)c3ccc(F)cc3)cn3ncnc23)c1 [Example 86B]", "Emax", 126),
    ("CC1(c2ccc(Cl)cn2)C(=O)Nc2nc(-c3cn4ncnc4c(CCC(F)(F)F)n3)nc(N)c21 (stereo not drawn) [Example 79A]", "Emax", 152),
    ("CC1(c2cccc(F)c2)C(=O)Nc2nc(-c3cn4ncnc4c(CCC(F)(F)C(F)(F)F)n3)nc(N)c21 (stereo not drawn) [Example 14B]", "Emax", 90),
    ("CC1(c2ccc(Cl)cn2)C(=O)Nc2nc(-c3cn4ncnc4c(CCC(F)(F)C(F)(F)F)n3)nc(O)c21 (stereo not drawn) [Example 120A]", "Emax", 107),
    ("CC1(c2cncc(F)c2)C(=O)Nc2nc(-c3cn4ncnc4c(CCC(F)(F)C(F)(F)F)n3)nc(N)c21 (stereo not drawn)", "Emax", 119),
    ("CCCc1nc(-c2nc(N)c3c(n2)NC(=O)C3(C)c2ccc(Cl)cc2)cn2ncnc12 (stereo not drawn) [Example 53A]", "Emax", 122),
    ("Cc1nc2c(CCC(F)(F)C(F)(F)F)nc(-c3nc(N)c4c(n3)NC(=O)C4(C)c3nnc(C4CC4)o3)cn2n1 (stereo not drawn) [Example 103A]", "Emax", 104),
    ("Nc1nc(-c2cn3ncnc3c(CCCC(F)(F)F)n2)nc2c1C(c1ccc(Cl)c(F)c1)(C1CC1)C(=O)N2 (stereo not drawn) [Example 33A]", "Emax", 107),
]
